System: MV-4-11 cells
Experiment: Cell growth inhibition assay (CellTiter-Glo), MV-4-11
Type: cell-based, human
Details: Homo sapiens, MV4-11, 96 h, MV-4-11, 4 days, half-maximal growth inhibition
ENDPOINT_LABEL: GI50 (nM)

Some entries whose results are on file:
- Cc1cc(N2C(=O)c3c(C4CC4)nn(-c4ccnn4C)c3[C@H]2c2ccc(Cl)cc2)cn(C)c1=O: 49.5
- COc1ccc(-n2nc(C)c3c2C(c2ccc(Cl)cc2)N(c2cc(C)c(=O)n(C)c2)C3=O)cc1 (centres unmarked): 30
- Cc1nn(C(C)C)c2c1C(=O)N(c1cc(C)c(=O)n(C)c1)C2c1ccc(Cl)cc1 (centres unmarked): 19.1
- Cc1[nH]nc2c1C(=O)N(c1cc(C)c(=O)n(C)c1)C2c1ccc(Cl)cc1 (centres unmarked): 51
- COc1ncccc1-c1nn(C)c2c1C(=O)N(c1cc(C)c(=O)n(C)c1)C2c1ccc(Cl)cc1 (centres unmarked): 54.6

a. COc1ncccc1-n1nc2c(c1C)C(=O)N(c1cc(C)c(=O)n(C)c1)C2c1ccc(Cl)cc1 (centres unmarked) [Example 17b]
b. Cc1nn(-c2cccnc2F)c2c1C(=O)N(c1cc(C)c(=O)n(C)c1)C2c1ccc(Cl)cc1 (centres unmarked)
IN: For the pair a and b , which entry has the numerically smaller recorded GI50? Answer = label.
OUT: a
(a: 27 nM, b: 50.5 nM)
